# experimentDescription: Test 1: Solution Stability Test
# Assay type: physicochemical
# runConditions: hydrochloric acid solution (pH 1.2), 37° C., one hour, about 50 μg/mL
propertyLabel: Compound's percent residue (%) pH 1.2
Answers are plain numbers, in %.

Cc1oc(=O)oc1COC(=O)[C@H]1[C@@H]2C[C@H](F)[C@@](N)(C(=O)O)[C@@H]21    99
CC(C)(C)C(=O)OCOC(=O)[C@H]1[C@@H]2C[C@H](F)[C@@](N)(C(=O)O)[C@@H]21    100

Could you report Compound's percent residue (%) pH 1.2 for every entry in the following list?
1. N[C@]1(C(=O)O)[C@H]2[C@@H](C[C@@H]1F)[C@@H]2C(=O)OCOC(=O)C12CC3CC(CC(C3)C1)C2
2. CC(C)OC(=O)OC(C)OC(=O)[C@H]1[C@@H]2C[C@H](F)[C@@](N)(C(=O)O)[C@@H]21.O=C(O)C(F)(F)F (stereo partly shown)
3. CC(C)[C@@H]1CC[C@@H](C)C[C@H]1OC(=O)OCOC(=O)[C@H]1[C@@H]2C[C@H](F)[C@@](N)(C(=O)O)[C@@H]21
4. C[C@H](N)C(=O)N[C@]1(C(=O)O)[C@H]2[C@@H](C[C@@H]1F)[C@@H]2C(=O)O.Cl
5. CC(OC(=O)OC12CC3CC(CC(C3)C1)C2)OC(=O)[C@H]1[C@@H]2C[C@H](F)[C@@](N)(C(=O)O)[C@@H]21 (stereo partly shown)

1: 100; 2: 102; 3: 99; 4: 100; 5: 95
